This collection of values is drawn from paper PMC10222209.

tested on: LNCaP95 cells; assay: Antiproliferative assay (resazurin, 72 h) in LNCaP95 cells; type: cell-based; details: LNCaP-95; antiproliferation, LNCaP95, 72 h, mean of three independent experiments; read-out: IC50 (μM) LNCaP95
observable: IC50 (µM)
Use µM as the unit, but write only the number.

Look over these answered cases.
O=C(Nc1ccc([N+](=O)[O-])cc1Cl)c1cc(Cl)ccc1O [Niclosamide, reference compound] | 0.372
CC(=O)Oc1ccc(Cl)cc1C(=O)Nc1ccc([N+](=O)[O-])cc1Cl | 0.386
N#Cc1ccc(O)c(C(=O)Nc2ccc(C(F)(F)F)c(C(F)(F)F)c2)c1 | 2.35
O=C(Nc1ccc(C(F)(F)F)c(C(F)(F)F)c1)c1cc(F)ccc1O | 0.13
Cc1cc(NC(=O)c2ccc(Cl)cc2O)ccc1[N+](=O)[O-] | 0.789

Q. GET /values?readout=IC50&system=LNCaP95 cells&item= `COc1cc([N+](=O)[O-])ccc1NC(=O)c1cc(Br)ccc1O`
A. 0.304

Q. GET /values?readout=IC50&system=LNCaP95 cells&item= `O=C(Nc1ccc(C(F)(F)F)c(C(F)(F)F)c1)c1cc(Br)ccc1O`
A. 0.213

Q. GET /values?readout=IC50&system=LNCaP95 cells&item= `O=C(Nc1ccc(C(F)(F)F)c(C(F)(F)F)c1)c1cc(Cl)ccc1O`
A. 0.239

Q. GET /values?readout=IC50&system=LNCaP95 cells&item= `O=C(Nc1ccc([N+](=O)[O-])c(C(F)(F)F)c1)c1cccc(Cl)c1`
A. 0.33

###

test system: 22RV1 cells; assay: Antiproliferative assay (resazurin, 72 h) in 22RV1 cells; format: cell-based; details: enzalutamide-resistant cell lines LNCaP95 and 22RV1; SAR statements
observable: antiproliferative activity, in words

O=C(Nc1ccc([N+](=O)[O-])c(C(F)(F)F)c1)c1cccc(Cl)c1 | retained
O=C(Nc1ccc(C(F)(F)F)c(C(F)(F)F)c1)c1cccc(Cl)c1 | retained
O=C(Nc1ccc([N+](=O)[O-])c(C(F)(F)F)c1)c1cccc(Br)c1 | retained

###

Each record here notes measured IC50.
test system: LNCaP95 cells; assay: Antiproliferative assay (resazurin, 72 h) in LNCaP95 cells; type: cell-based; conditions: LNCaP-95, 72 h, read-out: IC50 (μM) LNCaP95
Please give the number followed by its unit.

O=C(Nc1ccc([N+](=O)[O-])c(Cl)c1)c1cc(Cl)ccc1O | 1.67 µM

# ---- query compound ----
Q. May I ask what IC50 has been recorded for `N#Cc1ccc(NC(=O)c2cc(Cl)ccc2O)cc1C(F)(F)F` ?
A. 0.354 µM

###

Each record here notes measured IC50.
Tested on: LNCaP95 cells
Assay: Antiproliferative assay (resazurin, 72 h) in LNCaP95 cells
Type: cell-based
Conditions: LNCaP-95; antiproliferation, LNCaP95, 72 h, mean of three independent experiments; read-out: IC50 (μM) LNCaP95
Procedure: 22Rv1 cells were obtained from ATCC. LNCaP95 cells were provided by Dr. Yan Dong’s laboratory (Tulane University School of Medicine). LNCaP95 cells were maintained in an RPMI1640 medium with charcoal-stripped serum (CSS). 22Rv1 cells were maintained in an RPMI1640 medium with 10% FBS. […] Then, 20 μL of resazurin was added for 2 h before recording fluorescence at 560 nm (excitation) and 590 nm (emission) using a Victor microtiter plate fluorometer (Perkin-Elmer, Waltham, MA, USA).

O=C(Nc1ccc([N+](=O)[O-])cc1)c1cc(Cl)ccc1O | 0.812 µM
Cc1cc([N+](=O)[O-])ccc1NC(=O)c1cc(Cl)ccc1O | 0.493 µM
O=C(Nc1ccc([N+](=O)[O-])cc1F)c1cc(Cl)ccc1O | 0.373 µM
O=C(Nc1ccc([N+](=O)[O-])cc1F)c1ccc(Cl)cc1O | 1.19 µM
COc1cc(NC(=O)c2ccc(Cl)cc2O)ccc1[N+](=O)[O-] | 0.615 µM

Q. GET /values?readout=IC50&system=LNCaP95 cells&item= `N#Cc1ccc(NC(=O)c2cc(F)ccc2O)c(Cl)c1`
A. > 10 µM
